Target chain: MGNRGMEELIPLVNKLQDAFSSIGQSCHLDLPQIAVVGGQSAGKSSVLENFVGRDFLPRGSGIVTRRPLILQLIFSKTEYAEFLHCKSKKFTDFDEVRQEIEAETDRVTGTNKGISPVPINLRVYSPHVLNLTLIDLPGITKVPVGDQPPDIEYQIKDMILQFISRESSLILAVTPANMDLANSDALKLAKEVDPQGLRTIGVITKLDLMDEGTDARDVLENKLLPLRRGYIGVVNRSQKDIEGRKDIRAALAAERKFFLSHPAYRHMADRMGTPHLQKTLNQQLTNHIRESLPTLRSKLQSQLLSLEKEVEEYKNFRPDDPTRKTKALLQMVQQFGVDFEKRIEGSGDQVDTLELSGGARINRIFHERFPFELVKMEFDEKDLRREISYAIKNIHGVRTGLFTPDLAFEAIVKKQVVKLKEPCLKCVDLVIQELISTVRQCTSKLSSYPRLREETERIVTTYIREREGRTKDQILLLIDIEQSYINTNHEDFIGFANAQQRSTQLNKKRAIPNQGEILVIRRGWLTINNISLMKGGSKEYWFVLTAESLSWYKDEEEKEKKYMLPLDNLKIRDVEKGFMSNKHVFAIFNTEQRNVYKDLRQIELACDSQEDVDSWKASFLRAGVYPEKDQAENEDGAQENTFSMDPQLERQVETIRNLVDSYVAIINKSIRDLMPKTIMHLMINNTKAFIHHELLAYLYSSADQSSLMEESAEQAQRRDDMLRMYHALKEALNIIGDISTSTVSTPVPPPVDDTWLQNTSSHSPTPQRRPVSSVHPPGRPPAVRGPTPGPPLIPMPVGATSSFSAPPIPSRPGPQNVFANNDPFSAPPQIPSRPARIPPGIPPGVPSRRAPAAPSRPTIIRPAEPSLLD
Reported Property: pIC50
Numbers only, as −log10 of the molar value.

**Q:** Entry N#C/C(=C\c1ccc(O)c(O)c1)C(=O)NCCCNC(=O)/C(C#N)=C/c1ccc(O)c(O)c1 has what pIC50?
**A:** 6.30

---

Molecular target: UniProtKB A0ACI6NZN1
Sequence (A0ACI6NZN1 entry or part of it): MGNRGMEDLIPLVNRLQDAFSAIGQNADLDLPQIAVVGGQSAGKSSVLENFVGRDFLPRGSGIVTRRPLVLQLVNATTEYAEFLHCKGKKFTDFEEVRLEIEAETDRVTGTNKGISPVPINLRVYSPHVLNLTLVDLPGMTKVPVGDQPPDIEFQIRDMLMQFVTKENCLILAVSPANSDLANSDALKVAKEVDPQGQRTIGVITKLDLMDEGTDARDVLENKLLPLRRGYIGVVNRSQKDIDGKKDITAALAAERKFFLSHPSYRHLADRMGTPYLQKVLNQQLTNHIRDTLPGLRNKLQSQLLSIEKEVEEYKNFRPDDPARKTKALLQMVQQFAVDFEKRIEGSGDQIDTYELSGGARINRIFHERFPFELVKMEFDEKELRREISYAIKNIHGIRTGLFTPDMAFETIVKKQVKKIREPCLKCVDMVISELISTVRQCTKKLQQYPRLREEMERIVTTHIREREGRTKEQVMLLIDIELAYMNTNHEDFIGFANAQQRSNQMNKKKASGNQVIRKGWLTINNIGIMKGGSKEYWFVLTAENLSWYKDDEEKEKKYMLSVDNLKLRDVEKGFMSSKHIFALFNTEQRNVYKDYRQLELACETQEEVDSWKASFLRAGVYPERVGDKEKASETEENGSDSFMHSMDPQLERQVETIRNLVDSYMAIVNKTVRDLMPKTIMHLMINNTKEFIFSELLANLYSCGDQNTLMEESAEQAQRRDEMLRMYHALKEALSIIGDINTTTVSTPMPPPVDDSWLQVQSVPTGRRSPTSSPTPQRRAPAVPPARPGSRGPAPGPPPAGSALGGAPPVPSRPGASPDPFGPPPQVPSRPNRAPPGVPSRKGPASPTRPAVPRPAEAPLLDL
Assay: Dynamin I GTPase assay ([γ-32P]GTP hydrolysis)
Assay type: biochemical, sheep
Conditions: library 1 (dimeric) compounds
Experimental: The plasmid for GST-Amph2-SH3 (muscle Amph2) (Butler et al., 1997) was provided by Pieto DeCamilli, Yale, Connecticut, USA, in pGEX2T vectors. […] Dynamin GTPase activity was determined by hydrolysis of [ ? -^32P]GTP by a method modified from that described previously (Robinson et al., 1993). […] Dynamin activity was measured as either basal or phospholipid-stimulated with the addition of 5 μg/ml L-phosphatidylserine. […]
Reported Property: IC50 (µM)
One number for each entry, in µM.

**Q:** Entry COc1cc(C=C(C#N)C(=O)NCCCNC(=O)C(C#N)=Cc2cc(O)c(O)c(OC)c2)cc(O)c1O has what IC50?
**A:** 5
